# method.summary: Highest frequency of acute liver toxicity observed during clinical trials, expressed as a percentage. [column '% AIGUE' in source]
# recorded.conditions: human
Measured Hepatotoxicity (acute), listed per entry.

molecule: CCCC[C@@H]1CC(=O)[C@]2(O)O[C@@H]3[C@@H](NC)[C@@H](O)[C@@H](NC)[C@H](O)[C@H]3O[C@@H]2O1 [TROSPECTOMYCIN]
result.unit: %
Hepatotoxicity (acute): 0
//
molecule: CC(CCC(=O)O)C1CC[C@H]2[C@@H]3CC[C@@H]4C[C@H](O)CC[C@]4(C)[C@H]3CC[C@]12C (some centres undefined)
result.unit: %
Hepatotoxicity (acute): 0
//
molecule: CSc1ccc(C(=O)c2[nH]c(=O)[nH]c2C)cc1 [ENOXIMONE]
result.unit: %
Hepatotoxicity (acute): 0
//
molecule: NC(=O)c1cnccn1 [PYRAZINAMIDE]
result.unit: %
Hepatotoxicity (acute): 31.8

----------
# recorded.conditions: human, serum
Measured Hepatotoxicity (moderate), listed per entry.
measurement.type: Hepatotoxicity (moderate)

compound: CC(=O)OCC(=O)[C@@]1(O)CC[C@H]2[C@@H]3CCC4=CC(=O)C=C[C@]4(C)[C@@]3(F)[C@@H](O)C[C@@]21C [ISOFLUPREDONE ACETATE]
reported.value: 2

compound: CC(C)(S)C(=O)N[C@@H](CS)C(=O)O [BUCILLAMINE]
reported.value: 5

compound: CCCc1nn(C)c2c(=O)[nH]c(-c3cc(S(=O)(=O)N4CCN(C)CC4)ccc3OCC)nc12
reported.value: 0

compound: N[C@@H](C(=O)N[C@@H]1C(=O)N2C(C(=O)O)=C(Cl)CC[C@H]12)c1ccccc1 [LORACARBEF ANHYDROUS]
reported.value: 19

compound: CC(=O)[C@]1(O)Cc2c(O)c3c(c(O)c2[C@@H](O[C@H]2C[C@H](N)[C@H](O)[C@H](C)O2)C1)C(=O)c1ccccc1C3=O [IDARUBICIN]
reported.value: 7

compound: CC(Cc1ccccc1)NCCC(c1ccccc1)c1ccccc1 (stereo not drawn) [PRENYLAMINE]
reported.value: 1

compound: Cc1ccc(-c2nc3ccc(C)cn3c2CC(=O)N(C)C)cc1 [ZOLPIDEM]
reported.value: 3

compound: O=C1CN(/N=C/c2ccc([N+](=O)[O-])o2)C(=O)N1CO [NIFURTOINOL]
reported.value: 0

----------
Measured Hepatotoxicity (steatosis), listed per entry.
# recorded.conditions: human

compound: NS(=O)(=O)c1cc(C(=O)O)cc(N2CCCC2)c1Oc1ccccc1 [PIRETANIDE]
Hepatotoxicity (steatosis): 0

compound: Oc1ncc(N(CCCl)CCCl)c(O)n1
Hepatotoxicity (steatosis): 0

compound: CC(C)(O/N=C(\C(=O)N[C@@H]1C(=O)N2C(C(=O)[O-])=C(C[n+]3ccccc3)CS[C@H]12)c1csc(N)n1)C(=O)O
Hepatotoxicity (steatosis): 0

compound: CC(C)c1cccc(C(C)C)c1O
Hepatotoxicity (steatosis): 0

compound: CC(=O)c1ccc2c(c1)N(CCCN1CCC(CCO)CC1)c1ccccc1S2
Hepatotoxicity (steatosis): 0

----------
Measured Hepatotoxicity (choleostasis), listed per entry.
# recorded.conditions: human, Liver

molecule: CCCc1cc(=O)[nH]c(=S)[nH]1 [PROPYLTHIOURACIL]
Hepatotoxicity (choleostasis): 15

molecule: CO[C@H]1/C=C/O[C@@]2(C)Oc3c(C)c(O)c4c(c3C2=O)C2=NC3(CCN(CC(C)C)CC3)NC2=C(NC(=O)/C(C)=C\C=C\[C@H](C)[C@H](O)[C@@H](C)[C@@H](O)[C@@H](C)[C@H](OC(C)=O)[C@@H]1C)C4=O [RIFABUTIN]
Hepatotoxicity (choleostasis): 0

molecule: COc1ccc2cc([C@H](C)C(=O)O)ccc2c1 [NAPROXEN]
Hepatotoxicity (choleostasis): 8

molecule: NC(CO)(CO)CO [TROMETHAMINE]
Hepatotoxicity (choleostasis): 0

molecule: Nc1ncn([C@@H]2O[C@H](CO)[C@@H](O)[C@@H]2O)c(=O)n1 [FAZARABINE]
Hepatotoxicity (choleostasis): 0

molecule: Cc1ccc(-c2cc(C(F)(F)F)nn2-c2ccc(S(N)(=O)=O)cc2)cc1 [CELECOXIB]
Hepatotoxicity (choleostasis): 4

molecule: Cc1cccc(Nc2ccccc2C(=O)O)c1C [MEFENAMIC ACID]
Hepatotoxicity (choleostasis): 1

molecule: O=C1NC(=O)C(c2ccccc2)(c2ccccc2)N1 [PHENYTOIN]
Hepatotoxicity (choleostasis): 30

molecule: CNCCCN1c2ccccc2CCc2ccccc21 [DESIPRAMINE]
Hepatotoxicity (choleostasis): 1

molecule: CNCCCC12CCC(c3ccccc31)c1ccccc12 [MAPROTILINE]
Hepatotoxicity (choleostasis): 4
